System: LoVo (colon cancer)
Assay: Antiproliferative SRB assay, 72 h exposure
Assay type: cell-based, human
Conditions: Homo sapiens, LoVo; SRB, 72 h; mean ± SD of 3–5 experiments; n.a. = no activity in concentration of 5, 25, 125, 625 μM
recorded endpoint: pIC50
Please express pIC50 as -log10 of the molar concentration.

C=CC(C)(CC/C=C(\C)CCC=C(C)C)CC(=O)O[C@H](COC(=O)CCCCCCCCCCCCCCC)COP(=O)([O-])OCC[N+](C)(C)C (stereo partly drawn) | 3.60
CCC/C=C1/C(C)(C)CCCC1(C)CC(=O)OC[C@@H](O)COP(=O)([O-])OCC[N+](C)(C)C (stereo partly drawn) | 3.55

Please examine the following record next.
The compound C=CC(C)(CCC=C(C)C)CC(=O)OC[C@@H](O)COP(=O)([O-])OCC[N+](C)(C)C (stereo partly drawn) showed pIC50 equal to 3.61
